Just for reference, patent KR20220134462A is where these values come from.

Biological target: RKO/B7H3 세포주에 과발현된 B7-H3 (UniProt Q5ZPR3)
Assay: cell ELISA on fixed RKO/B7H3 cells (표 3)
# EC50 values compiled below

| Binder | EC50 (nM) |
| --- | --- |
| #5 항체 (B7-H3 항체) (antibody, V domains shown) VH: EVQLLESGGGLVQPGGSLRLSCAASGFTFSTYAMSWVRQAPGKGLEWVSAISGSGGSTLYADSVKGRFTISRDNSKNTLYLQMNSLRAEDTAVYYCARGGSATWAFDLWGQGTLVTVSS VL: QSVLTQPPSASGTPGQRVTISCSGSSSNIGSNYVYWYQQLPGTAPKLLIYRNNQRPSGVPDRFSGSKSGTSASLAISGLRSEDEADYYCGTWDSSLSGVVFGGGTKLTVL | 0.091 |
| #3 항체 (B7-H3 항체) (antibody, V domains shown) VH: EVQLLESGGGLVQPGGSLRLSCAASGFTFSTYYMTWVRQAPGKGLEWVSIINPRGGSTSYAEKFQGRFTISRDNSKNTLYLQMNSLRAEDTAVYYCARWNLGMDVWGQGTLVTVSS VL: EIVLTQSPGTLSLSPGERATLSCRVSQSISSYLNWYQQKPGQAPRLLIYDASHRATGIPDRFSGSGSGTDFTLTISRLEPEDFAVYYCQQYYAPSVTFGQGTKVEIK | 0.065 |
| #4 항체 (B7-H3 항체) (antibody, V domains shown) VH: EVQLLESGGGLVQPGGSLRLSCAASGFTFSSYGMHWVRQAPGKGLEWVSAISGSGTSIYYANSVKSRFTISRDNSKNTLYLQMNSLRAEDTAVYYCARGAGWFDYWGQGTLVTVSS VL: QSVLTQPPSASGTPGQRVTISCSGSTSNIGSNTVNWYQQLPGTAPKLLIYGKNIRPNGVPDRFSGSKSGTSASLAISGLHSEDEADYYCQSYDSSLSGWVFGGGTKLTVL | 0.042 |
